test system: PC-3 prostate; assay: NCI-60 one-dose screen, 48 h; conditions: 10 µM unless noted
The panel holds about 83,000 compounds, 20% with a hit somewhere; the sample as a whole holds those more often. Calls of active or inactive are those of the source. Rule for the calls: active = growth percent below 10; inactive = the rest.
Just give me one of these, please: YES = active, NO = inactive

Answered examples (5):
CC[C@@H](C(=O)[C@@H](C)[C@@H](O)[C@H](C)[C@@H]1O[C@@H]([C@@H](CC)C(=O)NCCc2ccc(F)cc2)CC[C@@H]1C)C1O[C@]2(C=CC(=O)[C@]3(CC[C@@](C)([C@H]4CC[C@](O)(CC)[C@H](C)O4)O3)O2)[C@H](C)C[C@@H]1C (stereo partly drawn): YES
Cn1cc(-c2csc(-c3ccc(Cl)cc3)n2)c2cccnc21: YES
CN1CCN(c2ccc(NC(=O)c3cncnc3Nc3ccc(OCc4ccccn4)c(Cl)c3)cc2)CC1: NO
COc1cc(CNC(=O)/C=C/C=C/c2ccc3c(c2)OCO3)ccc1OCc1cn(-c2ccc(C)c(C)c2)nn1: NO
CO/N=C(/C)c1ccc(NC(=O)CSc2nnc(-c3ccncc3)n2-c2ccccc2)cc1: NO

### Prompt Could you kindly confirm the outcome this assay logged for COc1ccc(-c2nc3c(c(-c4ccccc4)nn3-c3ccccc3)c(-c3ccc(N4CCN(C)CC4)cc3)c2C#N)cc1 ?
### Response NO

### Prompt Could you kindly confirm the outcome this assay logged for N#CC1C=CN(CC(N)=O)c2ccc3cccnc3c21 (stereo not drawn) ?
### Response NO

### Prompt Could you kindly confirm the outcome this assay logged for C[C@]12C=CC(=O)C=C1CCC1C2[C@@H](O)C[C@@]2(C)C1CC[C@]2(O)C(=O)COC(=O)CCC(=O)O (stereo partly drawn) ?
### Response NO

### Prompt Could you kindly confirm the outcome this assay logged for Cc1ccccc1NC(=O)c1sc2nc(C)c(C(=O)/C=C/c3ccccc3)cc2c1N ?
### Response NO

### Prompt Could you kindly confirm the outcome this assay logged for CCNc1cc(-c2cccc(OC(F)(F)F)c2)nc2ccc(N3CCCC3)cc12 ?
### Response NO

### Prompt Could you kindly confirm the outcome this assay logged for N=C(N)c1ccc(-c2ccc(-c3ccc(F)cc3)o2)o1 ?
### Response NO

### Prompt Could you kindly confirm the outcome this assay logged for O=C(c1ccc(-c2nc(CSc3nc4ccccc4s3)no2)cc1)N1CCSCC1 ?
### Response NO

### Prompt Could you kindly confirm the outcome this assay logged for Cc1ccc(-c2nc3nc(-c4ccccc4)nc(N4CCNCC4)c3o2)cc1 ?
### Response YES

### Prompt Could you kindly confirm the outcome this assay logged for NC(=O)CCC(C(=O)O)N1C(=O)c2ccc(O)cc2C1=O (stereo not drawn) ?
### Response NO

### Prompt Could you kindly confirm the outcome this assay logged for O=C(CCCCC1CCSS1)Nc1ncnc2n[nH]c(-c3ccc(Oc4ccccc4)cc3)c12 (stereo not drawn) ?
### Response NO

###

system: HT29 colon; assay: NCI-60 one-dose screen, 48 h (100 = growth as untreated, 0 = no growth, -100 = all killed); conditions: 10 µM unless noted
The panel holds about 83,000 compounds, 20% with a hit somewhere; the sample as a whole holds those more often.
OBSERVATION TYPE: growth (%)
Give your result in % as a bare value.

Solved cases below.
CC[C@@H](C(=O)[C@@H](C)[C@@H](O)[C@H](C)[C@@H]1O[C@@H]([C@@H](CC)C(=O)NCCc2ccc(F)cc2)CC[C@@H]1C)C1O[C@]2(C=CC(=O)[C@]3(CC[C@@](C)([C@H]4CC[C@](O)(CC)[C@H](C)O4)O3)O2)[C@H](C)C[C@@H]1C (some centres undefined): 47.2
CCOC(=O)CNP(=O)(OC[C@@H](Cc1ccccc1)NC(=O)c1cc2ccccc2s1)Oc1ccccc1 (some centres undefined): 57.2

### Prompt Could you please provide reported growth for Cn1cc(-c2csc(-c3c[nH]c4ccc(Br)cc34)n2)c2cnccc21 ? Thanks!
### Response -70

### Prompt Could you please provide reported growth for CCOC(=O)C#Cc1c(C(=O)OCC)nnn1[C@@H]1O[C@H](CO)[C@H]2OC3(CCCCC3)O[C@H]21 ? Thanks!
### Response 7.93

###

growth values for the molecules below.
test system: MDA-MB-435 melanoma; test: NCI-60 one-dose screen, 48 h (100 = growth as untreated, 0 = no growth, -100 = all killed); conditions: 10 µM unless noted
Compounds without any hit were thinned out: in the full panel of roughly 83,000, 20% have a hit. Activity calls are given as the source filed them. How the source made its calls: active means growth percent below 10; inactive means the rest.

Solved cases below.
CNC(=O)c1cc(Oc2ccc3nc(NC(C)=O)sc3c2)ccn1: 102% (inactive)
CC(C)=CCC[C@](C)(O)[C@H]1CC[C@]2(C)[C@@H]1CC[C@@H]1[C@@]3(C)Cc4nccnc4C(C)(C)[C@@H]3CC[C@]12C: 64.6% (inactive)
COC1=CC(c2ccc[nH]2)=N/C1=C\c1[nH]c(C)c(C(=O)OCc2ccccc2)c1C: -69.7% (active)

### Prompt Give MDA-MB-435 melanoma growth for the following molecule: COc1ccc(-c2nc3c(c(-c4ccccc4)nn3-c3ccccc3)c(-c3ccc(N4CCN(C)CC4)cc3)c2C#N)cc1
### Response 93.9% (inactive)

### Prompt Give MDA-MB-435 melanoma growth for the following molecule: CCOC(=O)C1=C(NC)OCC1=O
### Response 110% (inactive)

### Prompt Give MDA-MB-435 melanoma growth for the following molecule: N#Cc1cccc(F)c1
### Response 105% (inactive)

###

system: CCRF-CEM leukemia; test: NCI-60 one-dose screen, 48 h (100 = growth as untreated, 0 = no growth, -100 = all killed); conditions: 10 µM unless noted
About 83,000 compounds went through this panel and 20% of them were active in at least one assay; those are over-represented in the sample as a whole.
OBSERVATION TYPE: growth (%)
Give your result in % as a bare value.

Solved cases below.
O=C(O)/C(=C\c1ccc(Cl)cc1)c1ccc(Cl)cc1: 96.5
COC(=O)/C(CCC=C(C)C)=C1\[C@@H](OC(C)=O)C[C@@]2(C)[C@H]1C[C@@H](O)[C@H]1[C@@]3(C)CC[C@H](NCCN)[C@@H](C)[C@@H]3CC[C@@]12C: 79.4
OB(O)c1cccc(-c2nc3ccc4[nH]ncc4c3c3c2CCCC3)c1: 32.2
O=C1/C(=C/c2ccc(-c3ccc(Br)cc3)o2)SC(=S)N1CCc1ccc(O)cc1: 21.7
OCCCC1CCN(C(Cc2ccccc2)c2ccccc2)CC1 (centres undefined): 100
COc1ccc(-c2nn(-c3ccccc3)cc2/C=C2/SC(=S)N(C)C2=O)cc1: 49.6

### Prompt Could you please provide reported growth for COc1ccc(-c2nc(/C=C3\SC(=NCc4ccccc4)NC3=O)c3ccccn23)cc1 ? Thanks!
### Response 16.2

### Prompt Could you please provide reported growth for COc1cc(N2C(=O)[C@H](O)C2c2ccc(SC)cc2)cc(OC)c1OC (some centres undefined) ? Thanks!
### Response 3.99

### Prompt Could you please provide reported growth for CN(CCOc1ccc(C#N)cc1)CCOc1ccc(C#N)cc1 ? Thanks!
### Response -84.4

###

growth values for the compounds below.
system: MOLT-4 leukemia; assay: NCI-60 one-dose screen, 48 h (100 = growth as untreated, 0 = no growth, -100 = all killed); conditions: 10 µM unless noted
This is part of a sample that, as a whole, favours compounds with a hit. Of some 83,000 tested, about 20% had one in any assay.
Give your result in % as a bare value.

Solved cases below.
COc1ccc2c(c1)[n+]([O-])c(C(=O)/C=C/C=C(\Cl)c1cc(OC)c(OC)c(OC)c1)c(C)[n+]2[O-]: 96.1
O=C(Nc1ccc(NC(=O)c2cc(=O)[nH]c3ccccc23)cc1)Nc1cccc(C(F)(F)F)c1: 79.6
N#CC1=C(N)Oc2c(sc3c(F)cccc23)C1c1ccc(F)cc1 (centres undefined): 18.4
O=C1c2cccc(NCCN=Cc3cc(O)ccc3O)c2C(=O)c2c(NCCN=Cc3cc(O)ccc3O)cccc21: -53.1
CC(=O)c1cc(O)c2ccccc2c1O: 107

### Prompt Could you please provide reported growth for C=C1C(=O)O[C@H]2[C@H]1CC/C(COC(=O)N[C@H]1C[C@H](O[C@H]3C[C@](O)(C(=O)CO)Cc4c(O)c5c(c(O)c43)C(=O)c3c(OC)cccc3C5=O)O[C@@H](C)[C@H]1O)=C\CC[C@@]1(C)O[C@@H]21 ? Thanks!
### Response -5.6

### Prompt Could you please provide reported growth for CN(C)CC(=O)Nc1ccc2ncnc(Nc3ccc(Oc4cccc(C(F)(F)F)c4)c(Cl)c3)c2c1 ? Thanks!
### Response 50.8

### Prompt Could you please provide reported growth for O=C1/C(=C/c2ccc(Cl)c(Cl)c2)CN(C(=O)C(Cl)Cl)C/C1=C\c1ccc(Cl)c(Cl)c1 ? Thanks!
### Response -0.286

### Prompt Could you please provide reported growth for COC(=O)[C@H]1CCCN1C[C@@H](O)CN1C(=O)/C(=C\c2cc(OC)c(OC)c(OC)c2)c2ccccc21 ? Thanks!
### Response 81.6

Reference for the values: PubChem BioAssay (NCI)
